Entries and their MIC
# System: Pseudomonas aeruginosa
# Experiment description: Antibacterial activity against Pseudomonas aeruginosa PA22 (PT629) expressing MexXY after 24 hrs by geometric microdilution method
# Type: functional
Field format: number, assumed µg/mL, no unit text.

NC[C@H]1O[C@H](O[C@H]2[C@H](O)[C@@H](OCCCCc3ccc4ccccc4c3)[C@H](N)C[C@@H]2N)[C@H](N)[C@@H](OCCCCc2ccc3ccccc3c2)[C@@H]1OCCCCc1ccc2ccccc2c1: 128

Exercise: Provide measured MIC value, entry: CCCCCCO[C@@H]1[C@@H](N)[C@@H](O[C@H]2[C@H](O)[C@@H](OCCCCCC)[C@H](N)C[C@@H]2N)O[C@H](CN)[C@H]1OCCCCCC
Key: 8

* * *

# Experiment description: Ratio of cytotoxicity against murine J774 cells to antibacterial activity against Pseudomonas aeruginosa F03 expressing AAC6'-2A
# Assay type: toxicity, cell-based
# Reported conditions: mouse
Readout: selectivity ratio
No unit in the answer, only the number.

Exercise: State its selectivity ratio: CCCCCCCCCO[C@@H]1[C@@H](N)[C@@H](O[C@H]2[C@H](O)[C@@H](OCCCCCCCCC)[C@H](N)C[C@@H]2N)O[C@H](CN)[C@H]1O
Key: 2.5

* * *

# Experiment description: Cytotoxicity against murine J774 cells assessed as cell viability at 10 uM after 24 hrs by MTT assay relative to control
# Assay type: cell-based
# Reported conditions: mouse, read-out: Activity
Readout: viability at 24 h, 10 µM (%)
Express your answer in %, writing the number without its unit.

NC[C@H]1O[C@H](O[C@H]2[C@H](O)[C@@H](OCCCCc3ccc4ccccc4c3)[C@H](N)C[C@@H]2N)[C@H](N)[C@@H](OCCCCc2ccc3ccccc3c2)[C@@H]1O: 80
CCCCCCCCCO[C@@H]1[C@@H](N)[C@@H](O[C@H]2[C@H](O)[C@@H](OCCCCCCCCC)[C@H](N)C[C@@H]2N)O[C@H](CN)[C@H]1O: 75
CCCCCCO[C@@H]1[C@@H](N)[C@@H](O[C@H]2[C@H](O)[C@@H](OCCCCCC)[C@H](N)C[C@@H]2N)O[C@H](CN)[C@H]1OCCCCCC: 40

We now examine a further compound.
Exercise: Return viability at 24 h, 10 µM for the following compound: NC[C@H]1O[C@H](O[C@H]2[C@H](O)[C@@H](OCCCc3ccc4ccccc4c3)[C@H](N)C[C@@H]2N)[C@H](N)[C@@H](OCCCc2ccc3ccccc3c2)[C@@H]1O
Key: 90

* * *

# Tested on: Staphylococcus aureus
# Experiment description: microbe, parasite or virus in culture
# Reported conditions: ATCC 25923, 24 h
# Description: Antibacterial activity against Staphylococcus aureus ATCC 25923 after 24 hrs by geometric microdilution method
Below, each of the molecules is paired with its reported MIC value.
Report only the number, with the unit mg/L understood.

CCCCCCO[C@@H]1[C@@H](N)[C@@H](O[C@H]2[C@H](O)[C@@H](OCCCCCC)[C@H](N)C[C@@H]2N)O[C@H](CN)[C@H]1OCCCCCC: 4

Exercise: Answer briefly: MIC recorded on Staphylococcus aureus for NC[C@H]1O[C@H](O[C@H]2[C@H](O)[C@@H](OCc3cccc4ccccc34)[C@H](N)C[C@@H]2N)[C@H](N)[C@@H](OCc2cccc3ccccc23)[C@@H]1O
Key: 8

Exercise: Tell me MIC of N[C@H]1[C@@H](O[C@H]2[C@H](O)[C@@H](O)[C@H](N)C[C@@H]2N)O[C@H](CO)[C@@H](O)[C@@H]1O when tested on Staphylococcus aureus.
Key: 32

Exercise: Determine reported MIC for NC[C@@H]1O[C@H](O[C@H]2[C@@H](O)[C@H](O[C@@H]3[C@@H](O)[C@H](N)C[C@H](N)[C@H]3O[C@H]3O[C@H](CN)[C@@H](O)[C@H](O)[C@H]3N)O[C@@H]2CO)[C@H](N)[C@@H](O)[C@@H]1O ; test system: Staphylococcus aureus.
Key: 2

// provenance: ChEMBL document CHEMBL2429794
